The entries below come with measured pIC50 values attached.
molecular target: histidine-tagged recombinant human TrkA, cytoplasmic domain (Homo sapiens (Human), UniProt P04629); test: TrkA ELISA Assay; format: biochemical; conditions: read-out: TrkA Elisa Enzyme Assay IC50; note: 2.5 nM TrkA
Sequence (P04629 440-796): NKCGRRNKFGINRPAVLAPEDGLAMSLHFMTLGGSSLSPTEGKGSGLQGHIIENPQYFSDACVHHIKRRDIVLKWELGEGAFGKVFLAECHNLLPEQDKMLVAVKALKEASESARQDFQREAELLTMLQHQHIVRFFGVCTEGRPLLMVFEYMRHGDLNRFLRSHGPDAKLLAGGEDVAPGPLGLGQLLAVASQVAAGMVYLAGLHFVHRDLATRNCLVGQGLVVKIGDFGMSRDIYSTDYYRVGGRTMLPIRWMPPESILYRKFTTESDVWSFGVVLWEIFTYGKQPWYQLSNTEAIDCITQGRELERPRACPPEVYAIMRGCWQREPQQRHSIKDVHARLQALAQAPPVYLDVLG
pIC50: −log10 of the molar value.
measured property: pIC50

# smiles data, measured property, val
records = [
    ("CC(=O)N1CCOc2ccc(F)cc2[C@H]2CCCN2c2ccn3ncc(c3n2)C1", "pIC50", "7.00 to 9.00"),
    ("O=C1NCCOc2ncc(F)cc2[C@H]2COC(=O)N2c2ccn3ncc1c3n2", "pIC50", "5.52 to 7.00"),
    ("O=C(O)CN1CCOc2ccc(F)cc2[C@H]2CCCN2c2ccn3ncc(c3n2)C1", "pIC50", "5.52 to 7.00"),
    ("CCNC(=O)N1CCCOc2ccc(F)cc2[C@H]2CCCN2c2ccn3ncc(c3n2)C1", "pIC50", "7.00 to 9.00"),
    ("O=C1NOCCOc2ncc(F)cc2[C@H]2CCCN2c2ccn3ncc1c3n2", "pIC50", "7.00 to 9.00"),
]

----------
target: His-tagged recombinant human TrkA (cytoplasmic domain) (Homo sapiens (Human)); experiment: TrkA Binding Assay (LanthaScreen Eu Kinase Binding Assay)
pIC50: −log10 of the molar value.
measured property: pIC50

# smiles data, measured property, val
data = [
    ("O=C1NC[C@@H](O)Cn2cc(F)cc(c2=O)[C@H]2CCCN2c2ccn3ncc1c3n2", "pIC50", "7.00 to 9.00"),
    ("O=C1NCCCOc2ccc(F)cc2[C@H]2CCCN2c2ccn3ncc1c3n2", "pIC50", "7.00 to 9.00"),
    ("O=C1Nc2ncccc2COc2ncc(F)cc2[C@H]2CCCN2c2ccn3ncc1c3n2", "pIC50", "7.00 to 9.00"),
    ("O=C1NCCCc2ncc(F)cc2[C@H]2CCCN2c2ccn3ncc1c3n2", "pIC50", "7.00 to 9.00"),
    ("O=C1NCCCn2cc(F)cc(c2=O)[C@H]2CCCN2c2ccn3ncc1c3n2", "pIC50", "7.00 to 9.00"),
    ("O=C1NC[C@@H](O)COc2ncc(F)cc2[C@H]2CCCN2c2ccn3ncc1c3n2", "pIC50", "7.00 to 9.00"),
    ("O=C1NC[C@@H](O)COc2ccc(F)cc2[C@H]2C[C@@H](O)CN2c2ccn3ncc1c3n2", "pIC50", "7.00 to 9.00"),
    ("CN1CCCOc2ncc(F)cc2[C@H]2CCCN2c2ccn3ncc(c3n2)C1=O", "pIC50", "7.00 to 9.00"),
]

----------
molecular target: histidine-tagged recombinant human TrkA, cytoplasmic domain (Homo sapiens (Human), UniProt P04629); assay: TrkA ELISA Assay; assay type: biochemical; conditions: averaged IC50 values; […] TrkA, 500 μM ATP, 25 minutes at ambient temperature; read-out: TrkA Elisa Enzyme Assay IC50; note: 2.5 nM TrkA
The entries below come with measured IC50 values attached.

# compound, IC50
rows = [
    ("O=C1NCCOc2ncc(F)cc2[C@H]2CCCN2c2ccn3ncc1c3n2", "1 to 100 nM"),
    ("O=C1NCC(O)COc2ncc(F)cc2[C@H]2CCCN2c2ccn3ncc1c3n2 (some centres unmarked)", "1 to 100 nM"),
]

----------
The entries below come with measured pIC50 values attached.
target: His-tagged recombinant human TrkA (cytoplasmic domain) (Homo sapiens (Human), UniProt P04629); assay: TrkA Binding Assay (LanthaScreen Eu Kinase Binding Assay); conditions: averaged IC50 values; TR-FRET, 60-minute incubation at 22° C., 2% DMSO final
Sequence (P04629 440-796): as above
pIC50: −log10 of the molar value.

# compound, pIC50
rows = [
    ("O=C1NCCOc2ccc(F)cc2[C@@H]2C[C@@H](O)CN2c2ccn3ncc1c3n2", "5.52 to 7.00"),
    ("O=C1NC[C@H](O)COc2ccc(F)cc2[C@@H]2C[C@@H](O)CN2c2ccn3ncc1c3n2", "5.52 to 7.00"),
    ("O=C1NC[C@H](O)COc2ccc(F)cc2C2CC(F)(F)CN2c2ccn3ncc1c3n2 (single isomer, unassigned; diastereomer 2) [45 Diastereomer 2]", "7.00 to 9.00"),
    ("O=C1NCCCOc2ccc(F)cc2[C@@H]2C[C@@H](O)CN2c2ccn3ncc1c3n2", "5.52 to 7.00"),
    ("O=C1NC[C@H](O)COc2ccc(F)cc2C2CC(F)(F)CN2c2ccn3ncc1c3n2 (single isomer, unassigned; diastereomer 1) [45 Diastereomer 1]", "7.00 to 9.00"),
    ("O=C1NCC(O)COc2ncc(F)cc2[C@H]2CCCN2c2ccn3ncc1c3n2 (stereo partly shown)", "7.00 to 9.00"),
    ("O=C1NCCOc2ncc(F)cc2[C@H]2CCCN2c2ccn3ncc1c3n2", "7.00 to 9.00"),
]

----------
The entries below come with measured IC50 values attached.
Biological target: histidine-tagged recombinant human TrkA, cytoplasmic domain (Homo sapiens (Human))
Test: TrkA ELISA Assay
Assay type: biochemical
Conditions: read-out: TrkA Elisa Enzyme Assay IC50
Protocol: An enzyme-linked immunosorbant assay (ELISA) was used to assess TrkA kinase activity in the presence of inhibitors. […] The phosphorylated reaction product was detected using 0.2 μg/mL of a phosphotyrosine specific monoclonal antibody (clone PY20) conjugated to horseradish peroxidase in conjunction with the TMB Peroxidase Substrate System (KPL). After the addition of 1M phosphoric acid, the chromogenic substrate color intensity was quantitated via absorbance at 450 nm. […]

# compound, IC50
measured = [
    ("Fc1ccc2c(c1)[C@H]1CCCN1c1ccn3ncc(c3n1)CNCCO2 [Example 21]", "100 to 3000 nM"),
    ("O=C1OCCOc2ncc(F)cc2[C@H]2CCCN2c2ccn3ncc1c3n2 [Example 14]", "1 to 100 nM"),
    ("CS(=O)(=O)N1CCOc2ccc(F)cc2[C@H]2CCCN2c2ccn3ncc(c3n2)C1 [Example 25]", "1 to 100 nM"),
    ("CN1CCCOc2ncc(F)cc2[C@H]2CCCN2c2ccn3ncc(c3n2)C1=O [Example 18]", "1 to 100 nM"),
    ("O=C1NC[C@@H](O)Cn2cc(F)cc(c2=O)[C@H]2CCCN2c2ccn3ncc1c3n2 [Example 8]", "1 to 100 nM"),
]
